Test system: SK-MEL-28
Experiment description: Cytotoxicity against human SK-MEL-28 cells assessed as cell growth at 10 uM after 48 hrs by SRB assay
Format: functional
Conditions: SK-MEL-28, 48 h, read-out: Activity
Observed property: growth at 10 µM

Before answering, review these 4 worked examples.
{"columns": ["Smiles entry", "growth at 10 µM"],
 "data": [
  ["O=C1CN2C(c3ccccc3)=CSC2=N1", "105%"],
  ["CC1=NN(c2cn3c(-c4ccc(C)cc4)csc3n2)C(=O)C1", "98.5%"],
  ["O=C1CC(=O)N(c2cn3c(-c4ccc(Cl)cc4)csc3n2)N1", "95.7%"],
  ["O=C1CC(=O)N(c2cn3c(-c4ccccc4)csc3n2)N1", "96.4%"]
]}

Pending compound:
(Q) Input "Cc1cc(C)n(-c2cn3c(-c4ccc(Cl)cc4)csc3n2)n1" , output reported growth at 10 µM.
(A) 97.9%
